- assay.system: CaMyo5
- assay.notes: SPOT peptide array binding signal intensity (averaged, normalized) (arbitrary units (background-subtracted, floor 0; scale differs between SH3 domains)); higher = stronger binding of the SH3 domain to the peptide
recorded.endpoint: SPOT peptide array binding signal intensity

Some binders with known SPOT peptide array binding signal intensity results, for comparison:
In [3]: df
Out[3]:
            binder  observed
0  HGKRRAPLLLAKLDV         4
1  RRLRDKYKLPIVDAD       1.5
2  KRKRFNLLLPKPYLT         1

// switching to the query binder
Form: binder = SRYRRPLTLLLLKPF ; SPOT peptide array binding signal intensity = ≤ 0
